Assayed target: JNK1 (Homo sapiens, UniProt P45983)
Sequence (P45983 1-384 isoform P45983-2): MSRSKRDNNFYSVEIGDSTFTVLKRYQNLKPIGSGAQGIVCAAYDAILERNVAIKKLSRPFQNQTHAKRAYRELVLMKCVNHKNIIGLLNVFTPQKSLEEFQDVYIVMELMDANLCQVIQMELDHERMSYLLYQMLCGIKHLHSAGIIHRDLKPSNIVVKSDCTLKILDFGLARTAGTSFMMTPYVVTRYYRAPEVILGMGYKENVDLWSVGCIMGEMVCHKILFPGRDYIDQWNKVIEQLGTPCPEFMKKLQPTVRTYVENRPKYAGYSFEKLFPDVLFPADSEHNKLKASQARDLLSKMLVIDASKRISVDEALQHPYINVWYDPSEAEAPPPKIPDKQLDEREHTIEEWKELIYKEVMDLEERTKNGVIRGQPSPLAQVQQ
Protocol details: KINOMEscan competition binding assay, selectivity JNK1 versus MKK4
Condition set: Test conc 0.1 μM; ratio of percent of control; N/E* = PoC for JNK1 = 100
Reported endpoint: Selectivity JNK1/MKK4

CCCOc1ccc(-c2cnc3[nH]cc(C(=O)c4c(F)ccc(NS(=O)(=O)CCC)c4F)c3c2)c(Cl)c1 [Example 97] | 8.6

1. CCCS(=O)(=O)Nc1ccc(F)c(C(=O)c2c[nH]c3ncc(-c4ccc(Cl)cc4F)cc23)c1F [Example 49]
2. CCCS(=O)(=O)Nc1ccc(F)c(C(=O)c2c[nH]c3ncc(-c4ccc(OC5CCCC5)cc4Cl)cc23)c1F [Example 99]
Input: Between the two listed entries 1 and 2 , which has its Selectivity JNK1/MKK4 at the higher number? Record your answer as the label of the chosen record.
Output: 1

* * *

Assayed target: JNK1 (Homo sapiens)
Protocol details: KINOMEscan competition binding assay, selectivity JNK1 versus MKK4
Condition set: Test conc 10 μM; ratio of percent of control
The following compounds are shown together with reported Selectivity JNK1/MKK4 values.

Some entries whose results are on file:
CCCS(=O)(=O)Nc1ccc(F)c(C(=O)c2c[nH]c3ncc(-c4ccc(OC)cc4)cc23)c1F | >400
CCCS(=O)(=O)Nc1ccc(F)c(C(=O)c2c[nH]c3ncc(-c4ccc(F)cc4)cc23)c1F | >100
CCCS(=O)(=O)Nc1ccc(F)c(C(=O)c2c[nH]c3ncc(-c4ccc5c(c4)OCO5)cc23)c1F | >100

# value of Selectivity JNK1/MKK4, JNK1 (Homo sapiens), item CCCS(=O)(=O)Nc1ccc(F)c(C(=O)c2c[nH]c3ncc(-c4ccc(F)c(F)c4)cc23)c1F = >100

* * *

Assayed target: BRaf (Homo sapiens)
Sequence (P15056 whole entry): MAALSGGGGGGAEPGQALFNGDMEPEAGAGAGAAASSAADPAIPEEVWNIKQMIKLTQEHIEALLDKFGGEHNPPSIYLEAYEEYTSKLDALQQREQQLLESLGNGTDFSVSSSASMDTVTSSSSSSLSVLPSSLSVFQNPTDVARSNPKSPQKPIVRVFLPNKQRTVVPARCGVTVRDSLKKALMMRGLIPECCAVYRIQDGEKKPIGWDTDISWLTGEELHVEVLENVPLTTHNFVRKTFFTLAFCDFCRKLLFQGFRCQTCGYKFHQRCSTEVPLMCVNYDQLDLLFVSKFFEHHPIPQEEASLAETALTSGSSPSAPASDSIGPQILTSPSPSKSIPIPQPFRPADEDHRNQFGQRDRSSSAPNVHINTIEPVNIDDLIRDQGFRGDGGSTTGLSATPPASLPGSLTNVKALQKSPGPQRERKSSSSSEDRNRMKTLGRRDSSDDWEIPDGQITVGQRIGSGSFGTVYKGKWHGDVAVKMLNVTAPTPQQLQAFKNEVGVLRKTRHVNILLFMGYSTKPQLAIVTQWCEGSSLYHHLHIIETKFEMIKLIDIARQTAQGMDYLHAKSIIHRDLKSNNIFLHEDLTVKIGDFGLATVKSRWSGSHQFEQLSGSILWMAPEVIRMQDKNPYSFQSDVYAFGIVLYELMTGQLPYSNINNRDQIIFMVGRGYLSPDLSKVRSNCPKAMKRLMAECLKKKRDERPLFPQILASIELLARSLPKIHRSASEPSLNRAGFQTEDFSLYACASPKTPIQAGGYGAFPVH
Protocol details: KINOMEscan competition binding assay, selectivity BRaf versus MKK4
Condition set: Test conc. 0.1 μM; ratio of percent of control; N/E* per footnote
Reported endpoint: Selectivity BRaf/MKK4

Known results for compounds:
CCCCS(=O)(=O)Nc1cccc(C(=O)c2c[nH]c3ncc(-c4ccc5c(c4)OCO5)cc23)c1F | 56
CCCS(=O)(=O)Nc1ccc(F)c(C(=O)c2c[nH]c3ncc(-c4ccc(SC)cc4)cc23)c1F | 0.5
CCCS(=O)(=O)Nc1ccc(F)c(C(=O)c2c[nH]c3ncc(-c4ccc(OCC)cc4Cl)cc23)c1F | 6.5
CCCS(=O)(=O)Nc1ccc(F)c(C(=O)c2c[nH]c3ncc(-c4ccccc4Cl)cc23)c1F | 10.5
CCCS(=O)(=O)Nc1ccc(F)c(C(=O)c2c[nH]c3ncc(-c4ccc(Cl)cc4Cl)cc23)c1F | 3.3

1. CCCOc1ccc(-c2cnc3[nH]cc(C(=O)c4c(F)ccc(NS(=O)(=O)CCC)c4F)c3c2)c(Cl)c1
2. CCCS(=O)(=O)Nc1ccc(F)c(C(=O)c2c[nH]c3ncc(-c4ccc(OCC5CC5)cc4Cl)cc23)c1F
Input: Form field 'greater Selectivity BRaf/MKK4' accepts 1 or 2 ; which applies? Mark your selection by writing its label.
Output: 2

* * *

Assayed target: MKK4 (Homo sapiens)
Sequence (P45985 84-399): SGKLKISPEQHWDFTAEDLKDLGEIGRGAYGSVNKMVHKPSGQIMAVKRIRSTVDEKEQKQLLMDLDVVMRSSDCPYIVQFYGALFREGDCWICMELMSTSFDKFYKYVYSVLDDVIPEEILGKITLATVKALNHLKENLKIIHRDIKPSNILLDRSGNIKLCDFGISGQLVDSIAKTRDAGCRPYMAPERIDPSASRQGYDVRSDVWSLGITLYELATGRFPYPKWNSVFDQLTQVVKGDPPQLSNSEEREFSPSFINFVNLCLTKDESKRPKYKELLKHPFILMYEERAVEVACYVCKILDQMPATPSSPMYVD
Protocol details: KINOMEscan competition binding assay, MKK4
Condition set: read-out: Potency MKK4 (derived from % of control values, PoC)
# maps each entry to its remaining binding at 0.1 µM

Please review the following examples before continuing.
CCCS(=O)(=O)Nc1ccc(F)c(C(=O)c2c[nH]c3ncc(-c4ccccc4Cl)cc23)c1F [Example 13] | 10 to 30%
CCCCS(=O)(=O)Nc1cccc(C(=O)c2c[nH]c3ncc(-c4ccc5c(c4)OCO5)cc23)c1F [Example 53] | < 10%
CCCS(=O)(=O)Nc1ccc(F)c(C(=O)c2c[nH]c3ncc(-c4ccc(OC(C)C)cc4Cl)cc23)c1F [Example 96] | 10 to 30%

According to the records, this compound CCCS(=O)(=O)Nc1ccc(F)c(C(=O)c2c[nH]c3ncc(-c4ccc(SC)cc4)cc23)c1F [Example 8] displays remaining binding at 0.1 µM of > 30%
